test_description: PET hydrolysis, aromatic products released after 48 h (umol product/mg enzyme); higher = more PET depolymerization activity
condition_label: substrate: cryPow; 40 °C; pH 4.5
Catalogue of PET hydrolysis readings, one per entry.

{"sequence_entry": "QAPDRTALARTGPYQVAYYTQLPPAAEFSAATLFFPANKAQAFGGVVIAPGYTEKQVNVQWWGYHLASHGYAVLVLDTNDPEEYPDRRADALMAGVAVLRGENTRMGSTLRGKILEGRIALMGHSMGGGGTLLAANGHSDQLKTIIPFTPWLPGADFSAVSVPTLVLAGEIDRIAAVKDHAWPHYESLTGAVPRMYLEVKGGNHYIANSMTDREDRNPNIDVHDLVGSMVVAWLKTFLDDDESYRELVFGDLPEADRVRISRLEFVE [TEP006]", "PET hydrolysis": "< 3"}
{"sequence_entry": "ASPYERGPDPTDSILEASRGPFATSQLSVSSLSVSGFGGGTVYYPTDTSQGTFGAIAISPGYTARWSSLAWLGPRIASHGFVVIGIETNTIYDQPASRGRQLLAALDYLTSSSPSTVRSRIDASRLAVAGHSMGGGGTLEAANDRPSLQAAVPLAPWNLTKIWSGVRVPTMIIGGEADTVAPVASHSEPFYQSIPSSVEKAYLELNNASHFFPQTTNTTMAKSMVAWLKRFVDDDTRYDQFLCPAPRGLAIQEYRDTCPIS [TEP144]", "PET hydrolysis": "< 3"}
{"sequence_entry": "MLTITVATGSASAADNPYQRGPDPTRTSVTAVNGPFANTSVSVPTGYGFNGGRIYYPTDTSQGTFGAIAISPGYTALFSAELAWMGPWLASHGFVVIGIETNSRNDFDTARGTQLLAALDYLTQQSPVRDRVDPNRLAVAGHSMGGGGALSAATRRSSLKAVVGIAPYSPSSNLANDRVPTMIFAGQADTVVTPSYATGLYNSLPTTTESAYLEVAGADHGFMVGRSNPVMVRTMLPFVKMFIDNDARYSQFLCPLLDSSGVVTYRSTCPLLPSTPPTSTPTPTDPPTPTPTPTVPPGSASEIVGTQSSRCIDVPNASRNNGTRVQLYDCNKQTNQA [ESM121]", "PET hydrolysis": 5.5}
{"sequence_entry": "NPYERGPAPTTSSIEASRGSFATSTTTVSRLAVSGFGGGTIYYPTSTASGTFGAVSIAPGFTATQSSMAWLGPRLASQGFVVFTIDTITTSDQPDSRGRQLLSSLDYLTQQSSVRSRIDSSRLGVVGHSMGGGGTLEAARSRPSLQAAVPLTGWNLTKSWSTVRVPTLVVGAQADTVAPVASHSIPFYTSLPSSLDKAYLELRGASHFAPNSANTTIAKYTLSWLKRFIDDDTRYEQFLCPIPGTSTTISDYRGNCPHAG [ESM140]", "PET hydrolysis": "< 3"}
{"sequence_entry": "AENPYQRGPDPTLAALAASAGPYPIMETVVGSAEVTNFGGASIYYPAGTADGTFGGVAVTPGFLGPRSTMEWVARRVASHGFVVINIDTLERNDTPPLRARQMLAALDYLTGASAVRDRVDPTRLAVMGHSMGGGGSLQASRQRPQLKAAVPLTPWSNDKDFSADVVPTLIIGAELDDTAPVAEHAEPFFESIAAARKAYLELNDAEHRAPIRTNETIGTYSVAWLKRFVDDDTRYEQFLCPPPAPSAAIEEFRGTCPSS [TEP106]", "PET hydrolysis": "< 3"}
{"sequence_entry": "CATAGSALVSAPSLSGDGSYEVQTYTDFPDVPEFGAATIYYPVGASEPMGGVAIAPGFTEEQRHIAWWGPRLASHGYAVLVLDTNDRRERPDARADALIAGVTLLRAEGRRRGSPLFGRIDAAKMAIMGHSMGGGGALLAADEHSDLIRAAIPFTPWEPETDLRGISAPTLVLAGAADRVAEVEGHAWRHFSMIPESTPKVYMEIAGGDHYIADTTRGMDLATVGRYAIAWLKLYVDGDEQYRDLIYGEIPPADAAKFSRYVVNP [TEP157]", "PET hydrolysis": "< 3"}
{"sequence_entry": "ETEYRKGPDPTEATVTAALGPFATASVSVPSSVAGFGGGVIHYPTDTSQGTFGAVAVAPGFLGSSANYAWMGPRLASQGFVVFLINTDSRLDQPPSRGDQLLAALDYLVTSSSVRARIDASRLAVAGHSMGGGGTLEAATDRPGLQAAIPLQPWHTVKSWPNVQVPTLIIGAENDTTAPVASHAEPFYVSIPAAAEKAYLELNNAEHRVGTAGDTTQAKFMIVWLKRYVDNDTRYEQFICPPPPAPSSEIQEYRNTCPG [TEP171]", "PET hydrolysis": "< 3"}
{"sequence_entry": "DQVGQAPTADNITGNGSFATTSAAITNQTGFGGGTVYYPTADGTYPVVAIVPGFAATWSQISWLGPRVASWGFVVVGVDTTSVFDSPQQRGDEFLAALNWAANSAPASTRGKVDGTRRGVAGWSMGGGGTLEAMAKDTTLKAGVPLAPWDTTQDWSKIGKPVFIVGAQNDLIAPPASHAIPFYNSLAGPKSYLELAGADHFFPISANPTVSRAVVSWFKRFVSADDRFAPFTCGFAGAAVSAFRTTAC [TEP103]", "PET hydrolysis": 19}
{"sequence_entry": "AGNPYQRGPDPTLASVAASRGTFATAQVSVPPGNGFNGGTIYYPTDTTQGTWGAVAIVPGYTALFANEEAWMGPWLASFGFVVIGIETNSRNDFDTARGTQLLAALDYLTQKSPVRDRVDSARLGVIGHSMGGGGVVYATEHRPSLKAAVALAPFSPSQDMSTDHVPTMVMAGQNDTVVTPSYLDGLYATMPASAQSDFVQLAGADHVAYTHPNTTEMRLLIPWLKIFLDDDTRYTQFLCPLKDSTGVSMYRAKCPYVPPGGPTTSPTPTTTPTPPDGGACSATYRTVNSWSGGYQGEITVTAGGAAIDGWTVRWSLGGGQTVTQVWNGTLSTSGSTASVANASYNGSLQASASTTFGFLANGTPSTPALTCSSP [ESM084]", "PET hydrolysis": "< 3"}
{"sequence_entry": "DEIGQAPTASNITGNGSFATTSASISSTVAGFGGGRVYYPTATGTYPVIAISPGFTATWSSLSWIGPRLSSWGFVVVGIETNSIYDQPGSRGSQLLAALNWAVSSSPTAVRSRVDGSRRGVAGHSMGGGGTLEALAADTSGLVKAGVPLAPWNSDKTWNNVSEPVLIVGGQSDTIAPVSSHSVPFYNTLAGPKTYVELTGASHFFPQSSNATTSRALVSWFKRWLNQDSRFTPFTCGFSGAAVSSFRTNAC [ESM093]", "PET hydrolysis": "< 3"}
